system: Aspergillus niger; experiment: Antifungal activity against Aspergillus niger after 24 hrs by two fold dilution method; assay type: functional
measured.endpoint: MIC (µg/mL)

- O=[N+]([O-])c1ccc(N2C(O)CC(c3ccccc3)N2C(c2c[nH]c3ccccc23)N2CCOCC2)c([N+](=O)[O-])c1 (configuration not stated): 16
- O=[N+]([O-])c1ccc(N2C(O)CC(c3ccccc3)N2C(c2ccc(Cl)cc2)N2CCOCC2)c([N+](=O)[O-])c1 (configuration not stated): 64
- O=[N+]([O-])c1ccc(N2C(O)CC(c3ccccc3)N2C(c2ccc3c(c2)OCO3)N2CCOCC2)c([N+](=O)[O-])c1 (configuration not stated): 8
- O=[N+]([O-])c1ccc(N2C(O)CC(c3ccccc3)N2C(c2cncs2)N2CCOCC2)c([N+](=O)[O-])c1 (configuration not stated): 32
- CC(C)=CCC/C(C)=C\C(N1CCOCC1)N1C(c2ccccc2)CC(O)N1c1ccc([N+](=O)[O-])cc1[N+](=O)[O-] (configuration not stated): 8
- O=[N+]([O-])c1ccc(N2C(O)CC(c3ccccc3)N2C(c2ccco2)N2CCOCC2)c([N+](=O)[O-])c1 (configuration not stated): 2
- Clc1ccccc1C(c1ccccc1)(c1ccccc1)n1ccnc1: 2

* * *

experiment: Antifungal activity against Microsporum audouinii after 24 hrs by two fold dilution method; type: functional
measured.endpoint: MIC (µg/mL)

• O=[N+]([O-])c1ccc(N2C(O)CC(c3ccccc3)N2C(c2cncs2)N2CCOCC2)c([N+](=O)[O-])c1 (stereo not given) = 64
• O=[N+]([O-])c1ccc(N2C(O)CC(c3ccccc3)N2C(c2c[nH]c3ccccc23)N2CCOCC2)c([N+](=O)[O-])c1 (stereo not given) = 8
• O=[N+]([O-])c1ccc(C(N2CCOCC2)N2C(c3ccccc3)CC(O)N2c2ccc([N+](=O)[O-])cc2[N+](=O)[O-])cc1 (stereo not given) = 32

* * *

assay: Antifungal activity against Cryptococcus neoformans after 24 hrs by two fold dilution method; type: functional
# MIC annotations
measured.endpoint: MIC

* COc1ccc(C(N2CCOCC2)N2C(c3ccccc3)CC(O)N2c2ccc([N+](=O)[O-])cc2[N+](=O)[O-])cc1 (stereo not drawn) | > 100 µg/mL
* O=[N+]([O-])c1ccc(N2C(O)CC(c3ccccc3)N2C(c2ccco2)N2CCOCC2)c([N+](=O)[O-])c1 (stereo not drawn) | > 100 µg/mL
* CN(C)c1ccc(C(N2CCOCC2)N2C(c3ccccc3)CC(O)N2c2ccc([N+](=O)[O-])cc2[N+](=O)[O-])cc1 (stereo not drawn) | > 100 µg/mL
